# assay.target: Follistatin-related protein 3 (Homo sapiens)
# protocol.description: FSTL3 binders on small-molecule microarrays, primary screen, biochemical, small-molecule microarray, 635 nm fluorescence (AID 1105);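 note: score merges emission near 667 nm and signal to noise per printed spot across three slides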
# condition.info: FSTL3 binding, higher = more signal
measure: composite z-score

• C=C(COC)C(=O)CC[C@@H](OC(=O)c1cccnc1)c1ccc(OCCO)cc1 = 0.847
• COC(=O)c1c2oc(c1C(=O)OC)C(=O)N(C)Cc1cn(nn1)C[C@H](Cc1ccccc1)NC(=O)N[C@H](CO)CC2 = -0.269
• C=CC[C@]1(C(=O)O)COC(c2ccc(OCCCO)cc2)=N1 = 0.406
• O=C1C2C=CC(C(O)c3ccccc3)N(Nc3ccccc3F)C2C(=O)N1c1ccccc1 (stereo not given) = 0.341
• C=CCC(OC(C)=O)[C@@H]1[C@@H](N(Cc2ccc(-c3cccc(C(F)(F)F)c3)o2)C(=O)c2ccc(C)cc2)c2cc(OCCCO)ccc2N1C(=O)c1ccc2ccccc2c1 (stereo not given in full) = 0.443
• CCC(CC)C(O)C1C=CC2C(=O)N(c3ccccc3)C(=O)C2N1Nc1ccc(C(C)C)cc1 (stereo not given) = 0.932
• O=C1OCC=C[C@H]2OC34C=CCN(c5ccc(Cl)cc5)C(=O)[C@H]3N(CCO)C(=O)[C@@H]4[C@@H]12 (stereo not given in full) = -1.68
• Cc1ccc(S[C@]2(C(=O)NCC(F)(F)F)CC(=O)N(C3CCCCC3)[C@@H]2c2ccc(CO)cc2I)cc1 = 0.914
• CCCCC(=C=CC[C@@H](O)c1ccccc1OCCO)C[C@@H](O)COCc1ccccc1 = -0.126
• C=CCC(OC(C)=O)[C@@H]1[C@@H](N(Cc2cc3ccccc3o2)C(=O)c2ccc(C)cc2)c2cc(OCCCO)ccc2N1C(=O)Cc1ccc(OC)cc1 (stereo not given in full) = 0.087
• Cc1cc(C)cc(N2C(=O)CSC2c2cccc([N+](=O)[O-])c2)c1 (stereo not given) = 1.35
• CCCNC(=O)[C@@H]1c2ccccc2C(=O)N(C(C)C)[C@H]1c1ccc(CO)cc1 = -0.961
• C=CCC(OC(C)=O)[C@@H]1[C@@H](N(Cc2cccc3ccccc23)C(=O)Cc2ccc(F)cc2)c2cc(OCCCO)ccc2N1C(=O)c1ccc2ccccc2n1 (stereo not given in full) = -0.159
• CCOC(=O)C[C@H]1[C@H](OC(=O)c2ccc(C(=O)c3ccccc3)cc2)[C@@H](NC(=O)Cc2ccc(OC)cc2)c2cc(OCCCO)ccc2N1C(=O)c1ccccc1 = -0.0059
• CN(C)CCCNC(=O)[C@@]1(c2ccc([N+](=O)[O-])cc2)CC(=O)N(CC23CC4CC(CC(C4)C2)C3)[C@@H]1c1ccc(CO)cc1I = 1.34

###

Overview of reported z-score across a group of compounds:
# protocol.description: cell viability in Huh7 cells, primary screen, cytotoxicity control for HCV replication inhibitor project, CellTiter-Glo luminescence, basal, 48 h (AID 1143);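 note: Huh7 hepatoma cells carrying a hepatitis C replication reporter with no stimulus; test concentration not given here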
# condition.info: Huh7 HCV replicon, higher = more signal, called active from +8 up or from −8 down
Activity calls are given as the source filed them.
measure: z-score

• C=C(/C(=C/C[C@H](OC(C)=O)c1ccccc1OCCO)c1cc(C(=O)OC)ccc1OC)C(C)C = -3.44 (inactive)
• O=C1O[C@@H](c2ccccc2)[C@@H](c2ccccc2)N2[C@@H](c3ccc(O)cc3)[C@]3(C(=O)Nc4ccc(C#CC5(O)CCCCCC5)cc43)[C@@H](C(=O)NC[C@H](O)c3ccccc3)[C@H]12 = -1.42 (inactive)
• COC(=O)[C@@]1(Cc2ccc(OC)cc2)[C@H]2c3cc(C(=O)N(C)C)n(CCO)c3C[C@H]2CN1C(=O)c1ccccc1 = -0.0015 (inactive)
• C=CCC(OC(C)=O)[C@@H]1[C@@H](N(Cc2ccc(-c3cccc(C(F)(F)F)c3)o2)C(=O)c2ccc(C)cc2)c2cc(OCCCO)ccc2N1C(=O)c1ccc2ccccc2c1 (some centres not stated) = -0.478 (inactive)
• COC(=O)c1c(CC[C@@H](CO)NC(=O)N2CCC[C@H]2Cn2cc(Cc3ccccc3)nn2)oc(C(C)=O)c1C(=O)OC = -0.393 (inactive)
• CC(CO)N1C(=O)[C@@H]2[C@H]3C(=O)OCC=C[C@H]3OC23C=CCN(C(C)(C)C)C(=O)[C@@H]13 (some centres not stated) = -0.304 (inactive)
• O=C1NC(=O)C2C1C=CC(C(O)CCc1ccccc1)N2Nc1ccc(Cl)cc1Cl (configuration not stated) = -0.149 (inactive)
